# credit: patent US11186566B2

# AUC values compiled below
- protocol-text: Rat IV and PO PK studies
- Type: in vivo, male Sprague-Dawley rats
- conditions: male, Sprague-Dawley, plasma, oral, 3 mg/kg

- compound: "C[C@@H]1CN(c2nc(-n3ccc(OCCC4(C(F)(F)F)CC4)n3)ccc2C(=O)NS(=O)(=O)c2cccc(F)c2)C(C)(C)C1 [Compound 5]"
  AUC: "2700 ng·h/mL"
- compound: "C[C@@H]1CN(c2nc(-n3ccc(OCC4(C(F)(F)F)CCC4)n3)ccc2C(=O)NS(=O)(=O)c2ccccc2)C(C)(C)C1 [Compound 10]"
  AUC: "2200 ng·h/mL"
- compound: "Cc1ccc(S(=O)(=O)NC(=O)c2ccc(-n3ccc(OCC4(C(F)(F)F)CC4)n3)nc2N2C[C@@H](C)CC2(C)C)cc1 [Compound 24]"
  AUC: "20000 ng·h/mL"

* * *

Recorded EC50, one value per entry.
- experimental-system: F508del-CFTR (Homo sapiens (Human), UniProt P13569, DEL508-508)
- Sequence (P13569 other isoform, or with tags, fused parts or gaps del F508-F508): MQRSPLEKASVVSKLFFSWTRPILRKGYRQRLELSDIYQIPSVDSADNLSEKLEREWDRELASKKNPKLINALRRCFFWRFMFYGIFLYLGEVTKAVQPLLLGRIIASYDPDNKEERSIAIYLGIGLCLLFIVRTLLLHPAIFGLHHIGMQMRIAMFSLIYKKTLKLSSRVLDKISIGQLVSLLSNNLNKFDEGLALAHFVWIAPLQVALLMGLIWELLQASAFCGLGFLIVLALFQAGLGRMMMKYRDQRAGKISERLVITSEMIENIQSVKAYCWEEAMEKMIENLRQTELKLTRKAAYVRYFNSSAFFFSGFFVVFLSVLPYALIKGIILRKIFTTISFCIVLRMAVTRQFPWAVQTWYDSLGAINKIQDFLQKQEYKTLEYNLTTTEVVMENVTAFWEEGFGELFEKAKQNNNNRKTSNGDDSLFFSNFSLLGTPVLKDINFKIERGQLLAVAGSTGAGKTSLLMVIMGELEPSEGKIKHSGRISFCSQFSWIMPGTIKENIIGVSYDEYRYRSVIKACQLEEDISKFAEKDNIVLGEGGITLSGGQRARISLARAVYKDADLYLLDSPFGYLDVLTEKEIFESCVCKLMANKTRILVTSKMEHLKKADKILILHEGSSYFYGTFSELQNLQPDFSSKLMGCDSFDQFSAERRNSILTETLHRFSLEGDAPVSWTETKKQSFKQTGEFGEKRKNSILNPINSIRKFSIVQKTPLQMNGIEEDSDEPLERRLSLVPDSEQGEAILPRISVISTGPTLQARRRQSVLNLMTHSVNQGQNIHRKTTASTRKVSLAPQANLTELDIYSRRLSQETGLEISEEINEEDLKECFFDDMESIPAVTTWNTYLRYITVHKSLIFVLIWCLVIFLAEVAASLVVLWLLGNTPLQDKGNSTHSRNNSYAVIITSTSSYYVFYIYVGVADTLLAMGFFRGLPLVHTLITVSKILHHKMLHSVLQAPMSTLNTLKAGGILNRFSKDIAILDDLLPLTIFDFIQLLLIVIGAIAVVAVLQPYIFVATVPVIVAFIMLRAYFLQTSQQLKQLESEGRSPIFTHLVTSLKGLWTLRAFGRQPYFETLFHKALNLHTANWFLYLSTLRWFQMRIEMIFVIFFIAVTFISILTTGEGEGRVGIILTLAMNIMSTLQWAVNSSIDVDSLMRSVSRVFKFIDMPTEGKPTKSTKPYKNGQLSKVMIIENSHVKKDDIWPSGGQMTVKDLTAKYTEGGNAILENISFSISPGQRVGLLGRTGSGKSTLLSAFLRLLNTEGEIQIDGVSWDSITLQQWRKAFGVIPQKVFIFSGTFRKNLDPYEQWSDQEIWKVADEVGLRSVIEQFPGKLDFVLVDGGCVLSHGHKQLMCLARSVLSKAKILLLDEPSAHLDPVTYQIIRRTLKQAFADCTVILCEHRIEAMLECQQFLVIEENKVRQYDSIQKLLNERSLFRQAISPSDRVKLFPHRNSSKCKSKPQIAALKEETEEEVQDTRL
- protocol-text: Membrane potential optical (fluorescent voltage sensing dye, FLIPR III) HTS assay for F508del-CFTR modulators
- Format: cell-based
- conditions: F508del NIH 3T3 cells, assay 5A-A1; read-out: CFTRdF508 EC50
parameter-measured: EC50

- molecule: "C[C@@H]1CN(c2nc(-n3ccc(O[C@H]4C[C@H]5CC[C@@H]4C5)n3)ccc2C(=O)NS(=O)(=O)c2ccccc2)C(C)(C)C1 [Comp. 39]"
  parameter-measured: "EC50"
  observed-result: "< 100 nM"
- molecule: "C[C@@H]1CN(c2nc(-n3ccc(OCC4C[C@@H]5CC[C@@H]4C5)n3)ccc2C(=O)NS(=O)(=O)c2ccccc2)C(C)(C)C1 (stereo partly shown) [Comp. 40]"
  parameter-measured: "EC50"
  observed-result: "< 100 nM"
- molecule: "COc1ccc(S(=O)(=O)NC(=O)c2ccc(-n3ccc(OCC4(C(F)(F)F)CC4)n3)nc2N2C[C@@H](C)CC2(C)C)cc1 [Compound 54]"
  parameter-measured: "EC50"
  observed-result: "< 100 nM"
- molecule: "C[C@@H]1CN(c2nc(-n3ccc(OCC4C(C)(C)C4(C)C)n3)ccc2C(=O)NS(=O)(=O)c2ccc(O)cc2)C(C)(C)C1 [Comp. 33]"
  parameter-measured: "EC50"
  observed-result: "< 100 nM"
- molecule: "C[C@@H]1CN(c2nc(-n3ccc(OCC4(C(F)(F)F)CC4)n3)ccc2C(=O)NS(=O)(=O)c2cccc(O)c2)C(C)(C)C1 [Compound 21]"
  parameter-measured: "EC50"
  observed-result: "< 100 nM"
- molecule: "C[C@@H]1CN(c2nc(-n3ccc(OC4CC4)n3)ccc2C(=O)NS(=O)(=O)c2ccccc2)C(C)(C)C1 [Compound 48]"
  parameter-measured: "EC50"
  observed-result: "> 1000 nM"
- molecule: "C[C@@H]1CN(c2cc(-n3ccc(OCCC4(C(F)(F)F)CC4)n3)ncc2C(=O)NS(=O)(=O)c2ccccc2)C(C)(C)C1 [Comp. 44]"
  parameter-measured: "EC50"
  observed-result: "100 to 1000 nM"
- molecule: "C[C@@H]1CN(c2nc(-n3ccc(OCCC(C4CC4)C4CC4)n3)ccc2C(=O)NS(=O)(=O)c2ccccc2)C(C)(C)C1 [Comp. 42]"
  parameter-measured: "EC50"
  observed-result: "< 100 nM"
- molecule: "C[C@@H]1CN(c2nc(-n3ccc(COCC4(C(F)(F)F)CC4)n3)ccc2C(=O)NS(=O)(=O)c2ccccc2)C(C)(C)C1 [Comp. 37]"
  parameter-measured: "EC50"
  observed-result: "< 100 nM"
- molecule: "C[C@@H]1CN(c2nc(-n3ccc(OCCC4(C(F)(F)F)CC4)n3)ccc2C(=O)NS(=O)(=O)c2ccc(O)cc2)C(C)(C)C1 [Compound 31]"
  parameter-measured: "EC50"
  observed-result: "< 100 nM"
- molecule: "COc1ccc(S(=O)(=O)NC(=O)c2ccc(-n3ccc(OCC4(C(F)(F)F)CC4)n3)nc2N2C[C@@H](C)CC2(C)C)c(C)c1 [Comp. 57]"
  parameter-measured: "EC50"
  observed-result: "< 100 nM"
- molecule: "C[C@@H]1CN(c2nc(-n3ccc(OCC4(C(F)(F)F)CC4)n3)ccc2C(=O)NS(=O)(=O)c2ccc(F)cc2)C(C)(C)C1 [Compound 52]"
  parameter-measured: "EC50"
  observed-result: "< 100 nM"
- molecule: "COc1cccc(S(=O)(=O)NC(=O)c2ccc(-n3ccc(OCC4(C(F)(F)F)CC4)n3)nc2N2C[C@@H](C)CC2(C)C)c1 [Comp. 49]"
  parameter-measured: "EC50"
  observed-result: "< 100 nM"
- molecule: "C[C@@H]1CN(c2nc(-n3ccc(OCC4C5(CC5)C45CC5)n3)ccc2C(=O)NS(=O)(=O)c2ccccc2)C(C)(C)C1 [Compound 64]"
  parameter-measured: "EC50"
  observed-result: "< 100 nM"
- molecule: "C[C@@H]1CN(c2nc(-n3ccc(OCC4(C(F)(F)F)CC4)n3)ccc2C(=O)NS(=N)(=O)c2ccccc2)C(C)(C)C1 (single isomer, unassigned) [Compound 46]"
  parameter-measured: "EC50"
  observed-result: "< 100 nM"
- molecule: "C[C@@H]1CN(c2nc(-n3ccc(OCC45CC(F)(C4)C5)n3)ccc2C(=O)NS(=O)(=O)c2ccccc2)C(C)(C)C1 [Compound 63]"
  parameter-measured: "EC50"
  observed-result: "100 to 1000 nM"
- molecule: "C[C@@H]1CN(c2nc(-n3ccc(OCCC4(C(F)(F)F)CC4)n3)ccc2C(=O)NS(=O)(=O)c2ccccc2)C(C)(C)C1 [Compound 1]"
  parameter-measured: "EC50"
  observed-result: "< 100 nM"
- molecule: "Cc1ccccc1S(=O)(=O)NC(=O)c1ccc(-n2ccc(OCC3(C(F)(F)F)CC3)n2)nc1N1C[C@@H](C)CC1(C)C [Compound 23]"
  parameter-measured: "EC50"
  observed-result: "< 100 nM"
- molecule: "CC1(C)CN(c2nc(-n3ccc(OCC4(C(F)(F)F)CC4)n3)ccc2C(=O)NS(=O)(=O)c2ccccc2)C(C)(C)C1 [Compound 56]"
  parameter-measured: "EC50"
  observed-result: "100 to 1000 nM"
- molecule: "C[C@@H]1CN(c2nc(-n3ccc(OCC4(C(F)F)CC4)n3)ccc2C(=O)NS(=O)(=O)c2ccccc2)C(C)(C)C1 [Comp. 55]"
  parameter-measured: "EC50"
  observed-result: "< 100 nM"
- molecule: "Cc1cccc(S(=O)(=O)NC(=O)c2ccc(-n3ccc(OCC4(C(F)(F)F)CC4)n3)nc2N2C[C@@H](C)CC2(C)C)c1 [Comp. 28]"
  parameter-measured: "EC50"
  observed-result: "< 100 nM"
- molecule: "C[C@H]1CC(C)(C)N2c3nc(-n4ccc(OCCC5(C(F)(F)F)CC5)n4)ccc3C(=O)OC12 (stereo partly shown) [Compound 62]"
  parameter-measured: "EC50"
  observed-result: "> 1000 nM"
- molecule: "C[C@@H]1CN(c2nc(-n3ccc(OCC4(C(F)(F)F)CC4)n3)ccc2C(=O)NS(=O)(=O)c2ccc(C#N)cc2)C(C)(C)C1 [Comp. 27]"
  parameter-measured: "EC50"
  observed-result: "100 to 1000 nM"
- molecule: "[2H]C([2H])(Oc1ccn(-c2ccc(C(=O)NS(=O)(=O)c3ccccc3)c(N3C[C@@H](C)CC3(C)C)n2)n1)C1C(C)(C)C1(C)C [Compound 36]"
  parameter-measured: "EC50"
  observed-result: "< 100 nM"
- molecule: "Cc1ccccc1S(=O)(=O)NC(=O)c1ccc(-n2ccc(OCC3(C(F)(F)F)CCC3)n2)nc1N1C[C@@H](C)CC1(C)C [Comp. 58]"
  parameter-measured: "EC50"
  observed-result: "< 100 nM"
